# Assay System: Aldo-keto reductase family 1 member C3 (Homo sapiens, UniProt P42330)
# Sequence (P42330 whole entry): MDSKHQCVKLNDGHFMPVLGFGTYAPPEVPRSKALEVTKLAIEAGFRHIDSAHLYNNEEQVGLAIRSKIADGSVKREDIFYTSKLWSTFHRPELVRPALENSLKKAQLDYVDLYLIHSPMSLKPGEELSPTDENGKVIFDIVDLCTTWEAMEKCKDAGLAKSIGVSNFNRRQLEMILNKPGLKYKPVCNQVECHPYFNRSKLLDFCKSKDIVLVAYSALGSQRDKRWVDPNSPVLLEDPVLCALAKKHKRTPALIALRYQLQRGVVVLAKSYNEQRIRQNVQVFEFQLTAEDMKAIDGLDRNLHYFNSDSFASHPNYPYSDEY
# Assay Method Text: Inhibition of recombinant AKR1C3 assessed as NADP+ dependent oxidation of S-tetralol by fluorescence assay
Value Type: IC50 (nM)
State the answer as a number, implicitly in nM.

Supply reported IC50 belonging to this compound: "COc1ccc(Nc2ccc(C(C)=O)cc2C(=O)O)cc1"
610

Give IC50 for the following compound: "COc1ccccc1Nc1ccc(C(C)=O)cc1C(=O)O"
3060

Quick one: give measured IC50 for "CC(=O)c1ccc(Nc2cccc(C(F)(F)F)c2)c(C(=O)O)c1"
730

Supply measured IC50 of "Cc1cccc(Nc2cccc(C(=O)O)c2)c1" in your reply.
1880

Quickly give me recorded IC50 for "COc1ccc(C(=O)O)c(Nc2ccc(C(=O)O)cc2)c1"
690

Please indicate IC50 recorded for "Cc1cccc(Nc2ccccc2C(=O)O)c1"
240

Given the compound "O=C(O)c1cccc(Nc2ccccc2C(F)(F)F)c1" , write its reported IC50.
560

# return recorded IC50 for input "COc1ccc(C(=O)O)c(Nc2cccc(C(=O)O)c2)c1"
1450

Please give the documented IC50 of "CC(=O)c1ccc(Nc2ccc(C(=O)O)cc2)cc1"
2500

Input "O=C(O)c1cccc(Nc2cccc([N+](=O)[O-])c2)c1" , output reported IC50.
290

For the compound "O=C(O)c1ccc(Nc2cccc([N+](=O)[O-])c2)cc1" , report IC50.
4210

Consider the compound "O=C(O)c1cccc(Nc2ccccc2[N+](=O)[O-])c1" . State its measured IC50.
150

Consider the compound "O=C(O)c1ccccc1Nc1cccc(Cl)c1" and give its recorded IC50.
150

Recall and state the measured IC50 for "CC(=O)c1ccc(Nc2ccc(Br)cc2)c(C(=O)O)c1" .
250

Give me measured IC50, please, for this compound: "COc1ccc(Nc2ccc(C(=O)O)cc2)c([N+](=O)[O-])c1"
2060

Please supply the value of reported IC50 for the item "CC(=O)c1ccc(Nc2ccccc2C(C)=O)c(C(=O)O)c1"
4440

Answer with the recorded IC50 for the compound listed here: "COc1ccccc1Nc1ccccc1C(=O)O"
2220

Indicate its recorded IC50; the compound in question is "COc1ccc(C(=O)O)c(Nc2ccc([N+](=O)[O-])cc2)c1"
500

Output IC50 of "CC(=O)c1ccc(Nc2ccc(C(=O)O)cc2)c(C(=O)O)c1"
1550

Annotate the compound "O=C(O)c1ccc(Nc2ccccc2C(=O)O)cc1" with its measured IC50.
2740
